Origin of the recorded values: ChEMBL document CHEMBL1806358

studySystem: Mitogen-activated protein kinase kinase kinase 8 (Homo sapiens)
Sequence (P41279 whole entry): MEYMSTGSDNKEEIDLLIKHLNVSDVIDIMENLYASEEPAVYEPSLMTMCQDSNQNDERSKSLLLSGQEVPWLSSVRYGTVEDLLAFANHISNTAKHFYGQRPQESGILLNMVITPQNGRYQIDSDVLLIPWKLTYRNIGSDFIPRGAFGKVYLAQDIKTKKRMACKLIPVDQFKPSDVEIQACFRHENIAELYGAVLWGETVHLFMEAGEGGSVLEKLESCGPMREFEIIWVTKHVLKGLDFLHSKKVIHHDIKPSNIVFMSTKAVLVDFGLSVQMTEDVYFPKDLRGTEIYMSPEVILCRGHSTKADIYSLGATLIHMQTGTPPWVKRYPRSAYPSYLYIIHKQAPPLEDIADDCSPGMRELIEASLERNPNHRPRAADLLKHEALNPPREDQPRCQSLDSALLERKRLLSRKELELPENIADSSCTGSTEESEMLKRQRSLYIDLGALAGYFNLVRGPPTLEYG
testSummary: Inhibition of TPL2 using GST-MEK as substrate by LANCE assay
recordedEndpoint: IC50

The examples below pair each entry with its known result.
CCNCc1cncc(-c2ccc3[nH]nc(-c4nnn[nH]4)c3c2)c1C; > 100 µM
Cc1cncc(-c2ccc3[nH]nc(-c4nc5ccccc5[nH]4)c3c2)c1C; > 100 µM
Cc1c(C(N)=O)cncc1-c1ccc2[nH]nc(-c3nc4ccccc4[nH]3)c2c1; > 100 µM

Kindly review the next compound as well.
Problem: API: value(readout= IC50, system= Mitogen-activated protein kinase kinase kinase 8 (Homo sapiens), query= Cc1c(CN2CCOCC2)cncc1-c1ccc2[nH]nc(-c3nc4ccccc4[nH]3)c2c1 )
Solution: > 100 µM
